- Test system: 786-0
- ASSAY SUMMARY: NCI 60 antitumor screening (single dose / five doses)
- Type: cell-based
- MEASUREMENT PARAMETERS: Homo sapiens, 786-0, 786-0 (renal cancer), single dose 10 μM; read-out: Growth inhibition percentage (GI %)
RECORDED ENDPOINT: inhibition at 10 µM
# do not omit the unit; it follows the number

Exercise: GET /values?readout=inhibition at 10 µM&item= Clc1cccc(/C=N/Nc2nc(N/N=C/c3cccc(Cl)c3Cl)nc(N3CCCCC3)n2)c1Cl
Solution: -1.71%

Exercise: GET /values?readout=inhibition at 10 µM&item= Fc1cccc(Cl)c1/C=N/Nc1nc(N/N=C/c2c(F)cccc2Cl)nc(N2CCCCC2)n1
Solution: 71.7%

Exercise: GET /values?readout=inhibition at 10 µM&item= Brc1cccc(/C=N/Nc2nc(N/N=C/c3cccc(Br)c3)nc(N3CCCCC3)n2)c1
Solution: 4.36%

Exercise: GET /values?readout=inhibition at 10 µM&item= Fc1cccc(/C=N/Nc2nc(N/N=C/c3cccc(F)c3)nc(N3CCOCC3)n2)c1
Solution: 54%

Exercise: GET /values?readout=inhibition at 10 µM&item= COC(=O)C(Cc1ccccc1)Nc1nc(NC(Cc2ccccc2)C(=O)OC)nc(N2CCOCC2)n1 (centres unmarked)
Solution: -0.43%

Exercise: GET /values?readout=inhibition at 10 µM&item= C(=N\Nc1nc(N/N=C/c2ccc3c(c2)OCO3)nc(N2CCOCC2)n1)/c1ccc2c(c1)OCO2
Solution: 36.6%

Exercise: GET /values?readout=inhibition at 10 µM&item= Fc1cccc(Cl)c1/C=N/Nc1nc(N/N=C/c2c(F)cccc2Cl)nc(N2CCOCC2)n1
Solution: 3.32%

Exercise: GET /values?readout=inhibition at 10 µM&item= Fc1cccc(/C=N/Nc2nc(N/N=C/c3cccc(F)c3)nc(N3CCCCC3)n2)c1
Solution: 10.5%
